This section presents binders with their documented pEC50 values.
- target.of.assay: T1, human CD94 (human, UniProt Q13241 1-179)
- T1 construct: whole, on cells; Endogenous CD94 on primary cells (healthy-donor PBMC NK cells, CLPD-NK and T-LGLL patient cells), where it pairs with NKG2A or NKG2C; also called KLRD1; Natural killer cells antigen CD94
- T1 sequence (looked up): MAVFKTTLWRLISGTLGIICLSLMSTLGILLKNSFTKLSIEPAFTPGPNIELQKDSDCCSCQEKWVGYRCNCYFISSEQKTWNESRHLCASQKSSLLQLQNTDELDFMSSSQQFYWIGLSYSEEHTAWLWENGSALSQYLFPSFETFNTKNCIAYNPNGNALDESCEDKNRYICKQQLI
- experimental.protocol: flow cytometry titration (100 nM to 0.046 nM) on healthy-donor PBMCs, CD3-CD56bright NK cells; column 'Affinity on human NK cells (nM)'
Notebook: values listed as pEC50 are -log10 of the concentration (mol/L).

Some solved cases for reference:
>>> observed_measurement("anti-CD94 antibody ATX-129 (antibody, human IgG1, V domains shown) VH: EVQLVQSGGGLVQPGGSLRLSCAASGFTFSSYWMSWVRQAPGKGLEWVANIKQDGSAKYYVDSVKGRFTISRDNAKNSLYLQMNSLRAEDTAVYYCARGYYFDYWGQGTLVTVSS VL: EIVLTQSPSTLSASVGDRVTITCRVSQGISSYLNWYRQKPGKVPKLLIYAASSLQSGVPSRFSGSGSGTDFTLTISSLQPEDFATYYCQQSYSTPITFGQGTRLEIK")
8.55
>>> observed_measurement("anti-CD94 antibody ATX-127 (antibody, human IgG1, V domains shown) VH: QVQLQQSGPGLVKPSGTLSLTCAVSGGSISSRYWWTWVRQPPGKGLEWIGEIYHSGTTNYNPSLESRVTISVDKSKNQFSLKVSSVTAADTAVYYCARSPNWGYYYYYMDVWGKGTTVTVSS VL: EIVMTQSPATLSVSPGERATLSCRASQSVSSSYLAWYQQKPGQAPRLLIYGASSRATGIPDRFSGSGSGTDFTLTISRLESEDFAVYYCQQYGRSLTFGGGTKVEIK")
9.51

Request: What value of measured pEC50 is listed for anti-CD94 antibody ATX-130 (antibody, human IgG1, V domains shown, also called hATX-130) VH: EVQLLESGGGLVKPGGSLRLSCAASGFTFSSYSMNWVRQAPGKGLEWVSSISTSSNFIYYADSVKGRFTISRDNAKNSLYLQMNSLRAEDTAVYYCARDLGRYYYYMDVWGKGTTVTVSS VL: DIVMTQSPSSLSASVGDRVTITCRASQSISSWLAWYQQKPGKAPKSLIYAASSLQSGVPSKFSGSGSGTDFTLTISSLQPEDVATYYCQKYNSAPFTFGPGTKVDIK ?
Result: 9.22

Reference source for all entries: patent US20220127365A1
